In this section we review reported z-score values for a set of compounds.
- TARGET_OF_ASSAY: Insulin-degrading enzyme (Homo sapiens)
- TEST_NAME: exo-site inhibitors of human IDE, primary screen, biochemical, fluorescence anisotropy, probe displacement (AID 1259349);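 also: His-tagged human IDE residues 42-1019 made in E. coli with 30 nM FL-6b probe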
- TEST_CONDITIONS: purified IDE, FL-6b probe fluorescence polarization; at 20 µM; stronger effect = lower value
In all, about 17,000 compounds went through this assay and about 1,100 (6.5%) were called active. This excerpt belongs to a sample that is enriched for actives.
Write no unit; give the number alone.

Some solved cases for reference:
Ask | Quote z-score with test system Insulin-degrading enzyme (Homo sapiens) for O=C(c1ccncc1)N1CC(=O)N2[C@H](CO)[C@@H](c3ccc(-c4cccnc4)cc3)[C@H]2C1
Reply | 2.02

Ask | # lookup: Insulin-degrading enzyme (Homo sapiens) z-score, key = COc1ccccc1C#Cc1ccc([C@H]2[C@@H](C#N)N(C(=O)C3CCCCC3)[C@@H]2CO)cc1
Reply | -7.41

Ask | Find z-score for Cc1ccccc1-c1ccc([C@H]2[C@@H](CO)N3C(=O)CN(C(=O)c4ccncc4)C[C@@H]23)cc1 on Insulin-degrading enzyme (Homo sapiens) and write it down.
Reply | -3.52

Switching to the query record.
Ask | State z-score on Insulin-degrading enzyme (Homo sapiens). Entry: CCCC#Cc1ccc([C@@H]2[C@@H](CO)N3C(=O)CN(C(=O)c4ccncc4)C[C@@H]23)cc1
Reply | 1.2

----------
- TARGET_OF_ASSAY: Insulin-degrading enzyme (Homo sapiens) (UniProt P14735)
- Sequence (P14735 42-1019 limits assumed): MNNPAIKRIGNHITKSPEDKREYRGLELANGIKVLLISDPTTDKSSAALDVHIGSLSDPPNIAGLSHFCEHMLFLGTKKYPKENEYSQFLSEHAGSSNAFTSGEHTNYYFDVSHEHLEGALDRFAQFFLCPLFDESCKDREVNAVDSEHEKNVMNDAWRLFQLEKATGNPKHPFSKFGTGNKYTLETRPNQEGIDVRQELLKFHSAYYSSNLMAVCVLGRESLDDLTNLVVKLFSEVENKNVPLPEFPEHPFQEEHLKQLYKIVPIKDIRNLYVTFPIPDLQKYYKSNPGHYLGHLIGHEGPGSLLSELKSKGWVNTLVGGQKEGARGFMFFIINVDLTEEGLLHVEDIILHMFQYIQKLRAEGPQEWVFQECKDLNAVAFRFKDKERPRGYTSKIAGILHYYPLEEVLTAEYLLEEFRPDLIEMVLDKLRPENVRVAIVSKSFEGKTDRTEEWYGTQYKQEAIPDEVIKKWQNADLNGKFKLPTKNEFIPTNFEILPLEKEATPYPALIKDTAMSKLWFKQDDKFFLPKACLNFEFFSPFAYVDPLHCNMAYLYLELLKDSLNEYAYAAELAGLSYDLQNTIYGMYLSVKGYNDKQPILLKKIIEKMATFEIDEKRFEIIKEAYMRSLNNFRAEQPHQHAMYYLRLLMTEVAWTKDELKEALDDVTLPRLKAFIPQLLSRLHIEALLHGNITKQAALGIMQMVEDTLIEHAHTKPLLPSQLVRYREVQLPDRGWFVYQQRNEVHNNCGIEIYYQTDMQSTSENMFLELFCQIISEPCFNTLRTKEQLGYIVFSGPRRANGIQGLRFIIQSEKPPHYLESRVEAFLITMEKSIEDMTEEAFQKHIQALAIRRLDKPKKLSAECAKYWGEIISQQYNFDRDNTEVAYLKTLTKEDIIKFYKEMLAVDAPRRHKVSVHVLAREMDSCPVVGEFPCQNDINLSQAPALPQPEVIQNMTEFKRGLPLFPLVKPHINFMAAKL
- TEST_NAME: exo-site inhibitors of human IDE, primary screen, biochemical, fluorescence anisotropy, probe displacement (AID 1259349);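 also: His-tagged human IDE residues 42-1019 made in E. coli with 30 nM FL-6b probe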
- TEST_CONDITIONS: purified IDE, FL-6b probe fluorescence polarization; at 20 µM; stronger effect = lower value
In all, about 17,000 compounds went through this assay and about 1,100 (6.5%) were called active. The full list was thinned out, with actives kept by preference.
hey, just use Criterion met if measured z-score is less than -0.5, otherwise Criterion not met

Ask | Field: below-cutoff. Rule: recorded z-score strictly less than -0.5. Subject: CCNC(=O)c1cc2c(c(-c3cccc(-c4cncnc4)c3)n1)[C@H](CCO)N(C(C)=O)C2
Reply | Criterion not met

Ask | Record CC(C)C#Cc1ccc([C@H]2[C@@H](C#N)N(C(=O)CN(C)C)[C@H]2CO)cc1 : is its z-score strictly below -0.5?
Reply | Criterion not met

Ask | Input CCC(=O)N(C)C[C@H]1[C@H](c2ccc(C3=CCCCC3)cc2)[C@@H](CO)N1C(C)=O ; condition: z-score strictly below -0.5. Does it hold?
Reply | Criterion not met

Ask | Take the compound CCC(=O)N1CCCCN2[C@H](C1)[C@@H](c1ccc(-c3ccc(F)cc3)cc1)[C@@H]2CO and say whether its z-score is less than -0.5.
Reply | Criterion not met

Ask | Could you please tell me whether z-score recorded for CC(=O)NC[C@H]1[C@@H](c2ccc(C#CC(C)C)cc2)[C@@H](CO)N1Cc1ccccn1 is less than -0.5?
Reply | Criterion met

---
Ask | State whether -0.5 exceeds z-score recorded for CCC(=O)N1[C@@H](CO)[C@@H]2c3ccccc3N(C(=O)c3cnccn3)C[C@@H]21 .
Reply | Criterion not met

Ask | z-score strictly < -0.5 for this compound? O=C(C1CCOCC1)N1CC(=O)N2[C@H](CO)[C@H](c3ccc(C#Cc4cccc(F)c4)cc3)[C@H]2C1
Reply | Criterion met

Ask | Does the reported z-score of OC[C@H]1[C@H](c2ccc(-c3ccccc3F)cc2)[C@H]2CN(Cc3cncnc3)CCCCN21 stay below -0.5?
Reply | Criterion met

Ask | z-score strictly < -0.5 for this compound? Cc1cccc(-c2ccccc2[C@@H]2[C@H](C#N)N(c3ncc(-c4ccccc4)s3)[C@H]2CO)c1
Reply | Criterion not met

Ask | # check: z-score < -0.5 for COCC#Cc1ccc([C@@H]2[C@H]3CN(C(=O)C4CCOCC4)CC(=O)N3[C@H]2CO)cc1
Reply | Criterion not met

----------
- TARGET_OF_ASSAY: Insulin-degrading enzyme (Homo sapiens) (UniProt P14735)
- TEST_NAME: exo-site inhibitors of human IDE, primary screen, biochemical, fluorescence anisotropy, probe displacement (AID 1259349);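 also: His-tagged human IDE residues 42-1019 made in E. coli with 30 nM FL-6b probe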
- TEST_CONDITIONS: purified IDE, FL-6b probe fluorescence polarization; at 20 µM; stronger effect = lower value
The campaign covered roughly 17,000 compounds. About 1,100 (6.5%) were called active. For the sample, actives were picked, then their nearest neighbours and some compounds at random.
OBSERVED_PROPERTY: z-score
Answer with the value's number alone.

Ask | Answer with the recorded z-score of CCCNC(=O)N1[C@H](C#N)[C@@H](c2ccc(C3=CCCC3)cc2)[C@H]1CO only.
Reply | 0.0932

Ask | Identify measured z-score associated with COc1ccc2c3c([nH]c2c1)[C@H](CO)N(Cc1ccccc1Cl)CC31CN(C(=O)C2CC2)C1
Reply | -4.06

Ask | Please report the measured z-score for C[C@@H]1CN([C@H](C)CO)C(=O)c2cc(NC(=O)Cc3ccccc3)ccc2O[C@@H](C)CCCCO[C@@H]1CN(C)Cc1ccncc1
Reply | -1.57

---
Ask | Give reported z-score value for CO[C@@H]1CN(C)C(=O)c2cc(NS(=O)(=O)c3cccc(Cl)c3)ccc2OC[C@@H](C)NC[C@@H]1C
Reply | -0.0121

----------
- TARGET_OF_ASSAY: Insulin-degrading enzyme (Homo sapiens) (UniProt P14735)
- TEST_NAME: exo-site inhibitors of human IDE, primary screen, biochemical, fluorescence anisotropy, probe displacement (AID 1259349);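 also: His-tagged human IDE residues 42-1019 made in E. coli with 30 nM FL-6b probe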
- TEST_CONDITIONS: purified IDE, FL-6b probe fluorescence polarization; at 20 µM; stronger effect = lower value
Screen size: about 17,000 compounds; about 1,100 (6.5%) were called active. What follows is part of a selection rich in actives, with near analogues and random picks from the rest.
Classify: true (1) when z-score is strictly less than 0.2; false (0) when z-score is not.

Ask | Please let me know if CC(C)CC#Cc1ccc([C@H]2[C@@H](CO)N3C(=O)CN(C(=O)CN4CCOCC4)C[C@H]23)cc1 shows z-score below 0.2.
Reply | false (0)

New cases:
Ask | Given N#C[C@@H]1[C@@H](c2ccc(-c3ccccc3)cc2)[C@@H](CO)N1C(=O)Cc1ccccc1 , is recorded z-score strictly lower than 0.2?
Reply | false (0)

Ask | Below 0.2 on z-score? Entry N#C[C@@H]1[C@@H](c2ccc(-c3ccccc3F)cc2)[C@@H](CO)N1C(=O)C1CC1
Reply | true (1)

----------
- TARGET_OF_ASSAY: Insulin-degrading enzyme (Homo sapiens) (UniProt P14735)
- TEST_NAME: exo-site inhibitors of human IDE, primary screen, biochemical, fluorescence anisotropy, probe displacement (AID 1259349);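 also: His-tagged human IDE residues 42-1019 made in E. coli with 30 nM FL-6b probe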
- TEST_CONDITIONS: purified IDE, FL-6b probe fluorescence polarization; at 20 µM
About 1,100 (6.5%) of roughly 17,000 compounds were called active.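 The calls were made as follows: active = z-score of -3 or lower, meaning strong loss of probe binding signal; inactive = the rest.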 The list comes from a sample in which actives are over-represented; it also holds close analogues and randomly drawn compounds.
Lab note: assign the record to one of active, inactive

These recorded examples may help you get a feel for the data.
Ask | What is the recorded call for this compound in the test? C/C=C/c1ccc([C@@H]2[C@@H](CO)N3C(=O)CN(C(=O)Nc4cccc(OC)c4)C[C@@H]23)cc1
Reply | inactive

Ask | // param item: CCC(=O)N1[C@@H](CO)[C@H](c2ccc(-c3cccc(F)c3)cc2)[C@@H]1CNC(C)=O ; yields the recorded call
Reply | inactive

Ask | Check the results log: what was the call for CN1C(=O)c2cc(NC(=O)Nc3ccccc3Cl)ccc2OC[C@H]2O[C@H](CC(=O)NCCCN3CCOCC3)CC[C@H]21 ?
Reply | inactive

Ask | Name the outcome recorded for O=C(Nc1ccc(F)cc1)N1CCCCN2[C@H](CO)[C@H](c3ccc(C#Cc4ccccc4)cc3)[C@H]2C1 in the assay.
Reply | inactive

Ask | Hi, do you know how CCCC#Cc1ccc([C@H]2[C@@H](CO)N3CCCCN(S(=O)(=O)CC)C[C@H]23)cc1 came out in this test?
Reply | inactive

Ask | Identify the outcome logged in this assay for the compound shown: OC[C@H]1[C@@H](c2ccc(C#Cc3ccccc3F)cc2)[C@H]2CN(CC3CCOCC3)CCCCN21
Reply | inactive

Ask | Per the records of this test, what outcome belongs to COc1ccc(C#Cc2ccc([C@H]3[C@@H](CO)N4CCCCN(C(=O)Nc5ccccc5)C[C@H]34)cc2)cc1 ?
Reply | inactive

Ask | Tell me the assay call for CN(C)C(=O)c1cccc(-c2ccc([C@H]3[C@@H](CO)N4C(=O)CN(C(=O)C5CC5)C[C@@H]34)cc2)c1 please.
Reply | inactive

Further cases:
Ask | Give the logged outcome of this assay for the following compound: COc1cccc(-c2ccc([C@@H]3[C@@H](CO)N4C(=O)CN(C(=O)C5CCCCC5)C[C@H]34)cc2)c1
Reply | active

Ask | So what was the verdict on COc1ccccc1C#Cc1ccc([C@@H]2[C@H](CO)N3CCCCN(CCC(F)(F)F)C[C@@H]23)cc1 in this test?
Reply | active

Ask | Answer briefly: the call reported for O=C1CN(S(=O)(=O)Cc2ccccc2)C[C@@H]2[C@@H](c3ccc(C#Cc4ccccc4)cc3)[C@@H](CO)N12 in this assay.
Reply | inactive

Ask | Hey, what did the test say about CN(C)C(=O)c1cccc(-c2ccc([C@H]3[C@H](CO)N4C(=O)CN(C(=O)C5CCCCC5)C[C@@H]34)cc2)c1 ?
Reply | inactive

Ask | Each compound tested received a call. Report the one for COc1ccc2c3c([nH]c2c1)[C@@H](CO)N(Cc1ccncc1)CC31CN(C(=O)CN(C)C)C1 .
Reply | inactive

Ask | Call for entry COc1ccccc1NC(=O)N1CCCCN2[C@@H](CO)[C@@H](c3ccc(C#Cc4ccccc4)cc3)[C@@H]2C1 :
Reply | inactive

Ask | Hi, sorry to bother you, what did the test record for COc1ccccc1C#Cc1ccc([C@@H]2[C@@H](CO)N3CCCCN(S(C)(=O)=O)C[C@@H]23)cc1 ?
Reply | active

Ask | Hi, sorry to bother you, what did the test record for CCS(=O)(=O)Nc1ccc2c(c1)C(=O)N(C)[C@H]1CC[C@H](CC(=O)N[C@@H]3CCN(Cc4ccccc4)C3)O[C@H]1CO2 ?
Reply | inactive
